pIC50: −log10 of the molar value.
Record type: pIC50 measurement. Applies to: Beta-secretase 1 (Homo sapiens)

molecule: Cc1ccc(-c2cccc(C3(c4ccccc4)N=C(N)N(C)C3=O)c2)c(C)c1 (stereo not drawn)
pIC50: < 5.00
//
molecule: CN1C(=O)C(c2ccccc2)(c2cccc(Br)c2)N=C1N (stereo not drawn)
pIC50: < 5.00

Now, please, on to the next molecule.
Name the recorded pIC50 of CN1C(=O)C(c2ccccc2)(c2cccc(-c3ccc(-c4ccccc4)cc3)c2)N=C1N (stereo not drawn) , assay system Beta-secretase 1 (Homo sapiens).
< 5.00

----------
Molecular target: Beta-secretase 1 (Homo sapiens, UniProt P56817)
Sequence (P56817 whole entry, the tested form may be a part): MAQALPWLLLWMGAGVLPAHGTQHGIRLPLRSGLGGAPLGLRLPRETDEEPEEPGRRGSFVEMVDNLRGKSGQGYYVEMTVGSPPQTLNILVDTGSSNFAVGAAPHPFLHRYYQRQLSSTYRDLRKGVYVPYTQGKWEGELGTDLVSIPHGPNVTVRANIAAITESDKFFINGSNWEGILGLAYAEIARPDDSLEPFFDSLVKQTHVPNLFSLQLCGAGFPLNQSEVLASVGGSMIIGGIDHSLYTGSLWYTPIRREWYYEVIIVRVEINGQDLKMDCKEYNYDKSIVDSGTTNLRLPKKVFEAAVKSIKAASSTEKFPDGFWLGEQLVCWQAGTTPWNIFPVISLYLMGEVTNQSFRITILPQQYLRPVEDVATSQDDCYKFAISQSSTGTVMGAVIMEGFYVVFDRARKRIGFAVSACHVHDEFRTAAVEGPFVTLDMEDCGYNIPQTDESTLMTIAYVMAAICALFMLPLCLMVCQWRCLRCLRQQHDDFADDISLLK
Experiment: Inhibition of human BACE1 (1 to 460 residues) expressed in baculovirus infected insect cells at 10 uM using Rh-EVNLDAEFK-quencher as substrate measured after 90 mins by FRET assay relative to control
readout_label: inhibition (%)

Take a look at these entries with their results.
molecule: COc1ccc(-c2cccc(C3(c4ccccc4)N=C(N)N(C)C3=O)c2)c(OC)c1 (centres undefined)
experimental_target: Beta-secretase 1 (Homo sapiens, UniProt P56817)
inhibition, %: 75.5
--
molecule: COc1ccc(-c2cccc(C3(c4ccccc4)N=C(N)N(C)C3=O)c2)cc1OC (centres undefined)
experimental_target: Beta-secretase 1 (Homo sapiens, UniProt P56817)
inhibition, %: 97.5

a = CN1C(=O)C(c2ccccc2)(c2cccc(Br)c2)N=C1N (centres undefined)
b = COc1ccc(OC)c(-c2cccc(C3(c4ccccc4)N=C(N)N(C)C3=O)c2)c1 (centres undefined)
Please tell me which of the two, a or b , has the higher reported inhibition value. Your choice should be expressed through its label.
b
